Entry source: ChEMBL document CHEMBL1921670

# target or test system: CYP2D6 (Homo sapiens, UniProt P10635)
# Sequence (P10635 whole entry): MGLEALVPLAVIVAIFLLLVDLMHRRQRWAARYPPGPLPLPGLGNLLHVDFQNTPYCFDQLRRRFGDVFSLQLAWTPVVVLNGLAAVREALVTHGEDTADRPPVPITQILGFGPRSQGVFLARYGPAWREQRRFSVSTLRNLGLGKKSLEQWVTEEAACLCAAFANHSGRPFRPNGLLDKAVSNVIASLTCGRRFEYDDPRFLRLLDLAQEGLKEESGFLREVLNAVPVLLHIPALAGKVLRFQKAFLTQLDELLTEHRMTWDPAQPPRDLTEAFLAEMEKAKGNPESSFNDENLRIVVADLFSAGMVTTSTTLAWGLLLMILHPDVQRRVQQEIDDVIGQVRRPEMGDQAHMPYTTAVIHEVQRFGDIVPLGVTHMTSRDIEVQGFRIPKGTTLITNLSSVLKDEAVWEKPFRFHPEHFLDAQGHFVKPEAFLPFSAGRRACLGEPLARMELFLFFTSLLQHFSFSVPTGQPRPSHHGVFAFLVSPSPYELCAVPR
# experiment notes: Inhibition of CYP2D6 at 10 uM
# Assay type: ADME
property: inhibition at 10 µM (%)

Recorded inhibition at 10 µM, per entry:
{"cpd smiles": "COc1cccc(CNC(=O)c2cn(-c3ccccc3)c3cc(-c4cn[nH]c4)ccc23)c1", "inhibition at 10 µM [%]": 76}
{"cpd smiles": "COc1cccc(CNC(=O)c2[nH]c3cc(-c4cn[nH]c4)ccc3c2CN2CCOCC2)c1", "inhibition at 10 µM [%]": 70}
{"cpd smiles": "COc1cccc(CNC(=O)c2cn(CCN(C)C)c3cc(-c4cn[nH]c4)ccc23)c1", "inhibition at 10 µM [%]": 53}
{"cpd smiles": "COc1cccc(CN(CCN(C)C)C(=O)c2cn(C)c3cc(-c4cn[nH]c4)ccc23)c1", "inhibition at 10 µM [%]": 52}
{"cpd smiles": "COc1cccc(CNC(=O)c2cn(C)c3nc(-c4cn[nH]c4)ccc23)c1", "inhibition at 10 µM [%]": 23}
{"cpd smiles": "COc1cccc(CN(C)C(=O)c2cn(C)c3cc(-c4cn[nH]c4)ccc23)c1", "inhibition at 10 µM [%]": 58}

A: COc1cccc(CNC(=O)c2[nH]c3cc(-c4cn[nH]c4)ccc3c2CN2CCN(C)CC2)c1
B: COc1cccc(CN(C(=O)c2c[nH]c3nc(-c4cn[nH]c4)ccc23)C2CC2)c1
Q: Of A and B , which shows the smaller inhibition at 10 µM value? # respond with the chosen item's label
Result: B
